# study_target: C1-fused SRC kinases
# procedure_text: split reporter (BiFC, NanoBiT); Gaussia princeps luciferase complementation assay in human HEK293T cells; Gluc2 at the N terminus of SKAP1 or SKAP2 (N2), Gluc1 at the N terminus (N1) or C terminus (C1) of the SRC kinase; 100 ng plasmid pair, PEI; luminescence read in lysate one day later; normalized luminescence ratio (NLR), given relative to wild type or to SKAP2
readout_label: wild-type normalized NLR, mean over SRC kinases
Give a plain numeric answer without units written out.

Name the recorded wild-type normalized NLR, mean over SRC kinases of the item SKAP1 ΔSH3 mutant, N2-fused (domain or fragment) MQAAALPEEIRWLLEDAEEFLAEGLRNENLSAVARDHRDHILRGFQQIKARYYWDFQPQGGDIGQDSSDDNHSGTLGLSLTSDAPFLSDYQDEGMEDIVKGAQELDNVIKQGYLEKKSKDHSFFGSEWQKRWCVVSRGLFYYYANEKSKQPKGTFLIKGYGVRMAPHLRRDSKKESCFELTSQDRRSYEFTATSPAEARDWVDQISFLLKDLSSLTIPYEEDEEEEEKEETYDDIDGFDSPSCGSQCRPTILPGSVGIKEPTEEKEEEDIYEVLPDEEHDLEEDESGTRRK in your answer.
2.53

The reported measurements were obtained from paper PMC10939263.
